Readings of Test A disease control rating (wheat leaf blotch) for the listed molecules
system: Septoria tritici; experiment: Test A: wheat leaf blotch, preventive spray on wheat seedlings; type: in vivo; conditions: 50 ppm, 100 = 100% disease control, 0 = no control relative to controls
Answer format: numeric, % implied, no suffix.

These recorded examples may help you get a feel for the data.
molecule: Cc1cc(Cl)c(Nc2c(-c3ccc(F)cc3F)c(C)nn2C)c([N+](=O)[O-])c1 [Compound 15]
recorded result: 100
--
molecule: COc1cc(F)c(-c2c(C)nn(C)c2Nc2c(Cl)cc(Cl)cc2[N+](=O)[O-])c(F)c1 [Compound 82]
recorded result: 100
--
molecule: COc1cc(F)c(-c2c(C)nn(C)c2Nc2c(F)cc(Cl)cc2[N+](=O)[O-])c(F)c1 [Compound 86]
recorded result: 100

Then there is this molecule:
Request: GET /values?readout=Test A disease control rating (wheat leaf blotch)&item= Cc1nn(C)c(Nc2cccc(Cl)c2[N+](=O)[O-])c1-c1c(F)cccc1F [Compound 99]
Result: 99

###

test system: Blumeria graminis f. sp. tritici; assay: Test C: wheat powdery mildew, preventive spray on wheat seedlings; format: in vivo; settings: 50 ppm, rated after 8 days, 100 = 100% disease control, 0 = no control
Everything with Test C disease control rating (wheat powdery mildew) lower than 90% is n; everything else, including exactly 90%, is y.

molecule: COc1ccc(-c2c(C)nn(C)c2Nc2c(Cl)cc(Cl)cc2[N+](=O)[O-])c(Cl)c1 [Compound 65]
answer label: n
//
molecule: Cc1nn(C)c(Nc2ccc(OCC(F)F)cc2[N+](=O)[O-])c1-c1ccc(F)cc1Cl [Compound 36]
answer label: n
//
molecule: COc1cc(F)c(-c2c(C)nn(C)c2Nc2ccc(F)cc2[N+](=O)[O-])c(F)c1 [Compound 83]
answer label: y

# evaluate next
Request: Kindly determine if Test C disease control rating (wheat powdery mildew) recorded for Cc1nn(C)c(Nc2c(Cl)cc(Cl)cc2[N+](=O)[O-])c1-c1ccc(F)cc1Cl [Compound 59] is above or exactly 90%.
Result: y

###

system: Septoria tritici; test: Test A: wheat leaf blotch, preventive spray on wheat seedlings; type: in vivo; conditions: 50 ppm, 100 = 100% disease control, 0 = no control relative to controls
Readings of Test A disease control rating (wheat leaf blotch) for the listed molecules
Answer format: numeric, % implied, no suffix.

These recorded examples may help you get a feel for the data.
molecule: Cc1nn(C)c(Nc2c(Cl)cc(Cl)cc2[N+](=O)[O-])c1-c1ccc(Cl)cc1Cl [Compound 146]
value units: %
recorded result: 97
//
molecule: Cc1nn(C)c(Nc2c(Cl)cccc2[N+](=O)[O-])c1-c1c(F)cc(F)cc1F [Compound 158]
value units: %
recorded result: 99

Then there is this molecule:
Request: GET /values?readout=Test A disease control rating (wheat leaf blotch)&item= Cc1nn(C)c(Nc2c(F)cc(Br)cc2[N+](=O)[O-])c1-c1ccc(Cl)cc1Cl [Compound 132]
Result: 100

###

tested on: Blumeria graminis f. sp. tritici; assay: Test C: wheat powdery mildew, preventive spray on wheat seedlings; format: in vivo; details: 50 ppm, rated after 8 days, 100 = 100% disease control, 0 = no control
Readings of Test C disease control rating (wheat powdery mildew) for the listed compounds
Answer format: numeric, % implied, no suffix.

compound: Cc1nn(C)c(Nc2c(F)cccc2[N+](=O)[O-])c1-c1c(F)cc(C#N)cc1F [Compound 114]
recorded result: 99

Request: Find the measured Test C disease control rating (wheat powdery mildew): item COc1cc(F)c(Nc2c(-c3ccc(C#N)cc3Cl)c(C)nn2C)c([N+](=O)[O-])c1 [Compound 166] , target or system Blumeria graminis f. sp. tritici.
Result: 98

Request: Find the measured Test C disease control rating (wheat powdery mildew): item CCc1nn(C)c(Nc2ccc(C)cc2[N+](=O)[O-])c1-c1ccc(F)cc1Cl [Compound 174] , target or system Blumeria graminis f. sp. tritici.
Result: 92

Request: Find the measured Test C disease control rating (wheat powdery mildew): item Cc1cc(Cl)c(Nc2c(-c3c(F)cccc3Cl)c(C)nn2C)c([N+](=O)[O-])c1 [Compound 24] , target or system Blumeria graminis f. sp. tritici.
Result: 0

Request: Find the measured Test C disease control rating (wheat powdery mildew): item Cc1nn(C)c(Nc2cc(F)c(F)cc2[N+](=O)[O-])c1-c1ccc(F)cc1Cl [Compound 32] , target or system Blumeria graminis f. sp. tritici.
Result: 56

Request: Find the measured Test C disease control rating (wheat powdery mildew): item Cc1cc(F)c(Nc2c(-c3ccc(Cl)cc3Cl)c(C)nn2C)c([N+](=O)[O-])c1 [Compound 143] , target or system Blumeria graminis f. sp. tritici.
Result: 96

Request: Find the measured Test C disease control rating (wheat powdery mildew): item Cc1cccc([N+](=O)[O-])c1Nc1c(-c2ccc(F)cc2Cl)c(C)nn1C [Compound 117] , target or system Blumeria graminis f. sp. tritici.
Result: 95

Request: Find the measured Test C disease control rating (wheat powdery mildew): item Cc1cc(Cl)c(Nc2c(-c3ccc(F)cc3Br)c(C)nn2C)c([N+](=O)[O-])c1 [Compound 181] , target or system Blumeria graminis f. sp. tritici.
Result: 99
